Consider the following compounds and their measured chromatographic logP readings.
- experimental_details: log P determination by HPLC on reversed-phase columns (C 18), analogous to OECD Guideline 117
- Format: physicochemical
- recorded_conditions: reversed-phase HPLC column (C 18), pH 2.7, HPLC, acidic range, pH 2.7, 0.1% aqueous formic acid and acetonitrile; read-out: log P(HCOOH)
Give a plain numeric answer without units written out.

[in] Reported chromatographic logP, compound Cc1cc(F)c(N2C(=O)N(C(=O)NC3CC3)C(C)(C)C2=O)cc1[S+]([O-])CC(F)(F)F (stereo not shown) [Ex. No. 84] : ____
[out] 2.73

[in] Again, but for CCNC(=O)N1C(=O)N(c2cc([S+]([O-])CC(F)(F)F)c(C)cc2F)C(=O)C1C (stereo not shown) [Ex. No. 27]
[out] 2.42

[in] And the next one, Cc1cc(F)c(N2C(=O)CN(C(=O)NC3CC3)C2=S)cc1[S+]([O-])CC(F)(F)F (stereo not shown) [Ex. No. 4] ?
[out] 2.64

* * *

- experimental_details: log P determination by HPLC on reversed-phase columns (C 18), analogous to OECD Guideline 117
- Type: physicochemical
- recorded_conditions: method [a]
Listed next: entries and their corresponding logP[a].
Answer field: number only, no words.

Reference set, count: 8
O=C(Nc1cccc(C(F)(F)F)c1)N1CC(=O)N(c2cc([S+]([O-])CC(F)(F)F)c(Cl)cc2Cl)C1=O (racemic) : 3.92
CCNC(=O)N1CC(=O)N(c2cc([S+]([O-])CC(F)(F)F)c(Cl)cc2Cl)C1=O (racemic) : 2.56
Cc1cc(C)c(N2C(=O)CN(C(=O)NCC(F)(F)F)C2=O)cc1SCC(F)(F)F : 3.46
Cc1cc(C)c(N2C(=O)CN(C(=O)NC3CC3)C2=O)cc1SCC(F)(F)F : 1.36
Cc1cc(F)c(N2C(=O)CN(C(=O)NCc3ccccc3)C2=O)cc1SCC(F)(F)F : 3.64
Cc1cc(Cl)c(N2C(=O)CN(C(=O)NCC(F)(F)F)C2=O)cc1[S+]([O-])CC(F)(F)F (stereo not drawn) : 2.66
CCNC(=O)N1C(=O)N(c2cc(SCC(F)(F)F)c(C)cc2F)C(=O)C1(C)C : 3.72
Cc1cc(F)c(N2C(=O)CN(C(=O)N(C)C3CC3)C2=O)cc1[S+]([O-])CC(F)(F)F (stereo not drawn) : 2.08

[in] Sample Cc1cc(F)c(N2C(=O)C(C)N(C(=O)NCC(C)C)C2=O)cc1[S+]([O-])CC(F)(F)F (mixture of isomers) — what was its logP[a]?
[out] 3.10

[in] Next: CCNC(=O)N1CC(=O)N(c2cc([S+]([O-])CC(F)(F)F)c(C)cc2C)C1=O (stereo not drawn)
[out] 2.14

[in] What about this compound? Cc1cc(F)c(N2C(=O)CN(C(=S)NCC(F)(F)F)C2=O)cc1SCC(F)(F)F
[out] 3.71

[in] # iterate: CCNC(=O)N1CC(=O)N(c2cc(SCC(F)(F)F)c(C)cc2F)C1=S
[out] 3.91

[in] Same for Cc1cc(F)c(N2C(=O)CN(C(=O)Nc3cccc(F)c3)C2=O)cc1SCC(F)(F)F
[out] 3.90

[in] Quick one: Cc1cc(C)c([S+]([O-])CC(F)(F)F)cc1N1C(=O)CN(C(=O)NCC(C)C)C1=O (stereo not drawn)
[out] 2.77

[in] And O=C(Nc1ccc(F)cc1)N1CC(=O)N(c2cc([S+]([O-])CC(F)(F)F)c(Cl)cc2Cl)C1=O (racemic) ?
[out] 3.39

* * *

- experimental_details: log P determination by HPLC on reversed-phase columns (C 18), analogous to OECD Guideline 117
- Assay type: physicochemical
- recorded_conditions: method [a]
# key: entry, value: logP[a]

[in] logP[a] lookup needed for Cc1cc(F)c(N2C(=O)CN(C(=O)N3CCN(C)CC3)C2=O)cc1[S+]([O-])CC(F)(F)F (centres unmarked) , thanks.
[out] 1.72

[in] Proceed to Cc1cc(Cl)c(N2C(=O)CN(C(=O)NC3CC3)C2=O)cc1SCC(F)(F)F
[out] 3.29

[in] Could you do the same for Cc1cc(F)c(N2C(=O)CN(C(=O)NC(C)C)C2=O)cc1SCC(F)(F)F , please?
[out] 3.34

[in] How about this compound: Cc1cc(F)c(N2C(=O)C(C)N(C(=O)NCc3ccccc3)C2=O)cc1[S+]([O-])CC(F)(F)F (mixture of isomers)
[out] 3.12

[in] Again, but for CCC(C)NC(=O)N1CC(=O)N(c2cc(SCC(F)(F)F)c(C)cc2F)C1=O (centres unmarked)
[out] 3.64

[in] Another: Cc1cc(F)c(N2C(=O)CN(C(=O)N(C)CC(C)C)C2=O)cc1SCC(F)(F)F
[out] 3.53

[in] Same question for CCC(C)(C)NC(=O)N1CC(=O)N(c2cc(SCC(F)(F)F)c(C)cc2F)C1=O please.
[out] 4.09

[in] Would you kindly repeat that for O=C(NCc1ccccc1)N1CC(=O)N(c2cc(SCC(F)(F)F)c(Cl)cc2Cl)C1=O ?
[out] 3.86

* * *

- experimental_details: log P determination by HPLC on reversed-phase columns (C 18), analogous to OECD Guideline 117
- Type: physicochemical
- recorded_conditions: reversed-phase HPLC column (C 18), pH 7.8, HPLC, neutral range, pH 7.8, 0.001 molar aqueous ammonium hydrogencarbonate and acetonitrile; read-out: log P(neutral)
readout_type: chromatographic logP

Cc1cc(F)c(N2C(=O)CN(C(=O)NC3CC3)C2=S)cc1[S+]([O-])CC(F)(F)F (centres unmarked) : 2.65

[in] Return reported chromatographic logP; argument: Cc1cc(F)c(N2C(=O)NC(C)(C)C2=O)cc1SCC(F)(F)F
[out] 2.53

[in] Now the same for Cc1cc(F)c(N2C(=O)CNC2=O)cc1SCC(F)(F)F
[out] 2.08

[in] What would you report for Cc1cc(F)c(N2C(=O)CN(C(=O)N3CCOCC3)C2=O)cc1SCC(F)(F)F ?
[out] 2.58

[in] Input Cc1cc(F)c(N2C(=O)CN(C(=O)NC3CC3)C2=S)cc1SCC(F)(F)F
[out] 3.56

* * *

- experimental_details: log P determination by HPLC on reversed-phase columns (C 18), analogous to OECD Guideline 117
- Type: physicochemical
- recorded_conditions: method [b]
readout_type: logP[b]
Provide a numeric answer; units are not to be included.

Cc1cc(C)c(N2C(=O)CN(C(=O)NCC(C)C)C2=O)cc1SCC(F)(F)F [compound 34] : 3.69
Cc1cc(F)c(N2C(=O)CN(C(=O)NC(C)(C)C)C2=O)cc1SCC(F)(F)F [compound 54] : 3.71
Cc1cc(Cl)c(N2C(=O)CN(C(=O)NC3CC3)C2=O)cc1SCC(F)(F)F [compound 50] : 3.19

[in] GET /values?readout=logP[b]&item= Cc1cc(C)c([S+]([O-])CC(F)(F)F)cc1N1C(=O)CN(C(=O)NC(C)(C)C)C1=O (centres unmarked) [compound 40]
[out] 2.83

[in] Queued: Cc1cc(F)c(N2C(=O)CN(C(=O)N3CCS(=O)(=O)CC3)C2=O)cc1[S+]([O-])CC(F)(F)F (centres unmarked) [compound 134]
[out] 1.69

[in] Ok, now O=C(Nc1ccc(F)cc1)N1CC(=O)N(c2cc([S+]([O-])CC(F)(F)F)c(Cl)cc2Cl)C1=O (racemic) [compound 116]
[out] 3.46

[in] Now the same for Cc1cc(F)c(N2C(=O)CN(C(=O)Nc3ccccc3)C2=O)cc1[S+]([O-])CC(F)(F)F (centres unmarked) [compound 19]
[out] 2.83

[in] Now this one: Cc1cc(C)c([S+]([O-])CC(F)(F)F)cc1N1C(=O)CN(C(=O)NCC(F)(F)F)C1=O (centres unmarked) [compound 61]
[out] 2.47

* * *

Overview of recorded chromatographic logP for various molecules
- experimental_details: log P determination by HPLC on reversed-phase columns (C 18), analogous to OECD Guideline 117
- Assay type: physicochemical
- recorded_conditions: reversed-phase HPLC column (C 18), pH 2.7, method [a]; read-out: logP[a]
Could you respond with only the numeric value?

Examples from the recorded data:
Cc1cc(F)c(N2C(=O)CN(C(=O)NCC(F)(F)F)C2=O)cc1SCC(F)(F)F [Ex. No. 30] : 3.28
Cc1cc(F)c(N2C(=O)CN(C(=O)NCC(C)C)C2=O)cc1[S+]([O-])CC(F)(F)F (stereo not shown) [Ex. No. 15] : 2.72
Cc1cc(F)c(N2C(=O)CN(C(=O)NCC(C)C)C2=O)cc1SCC(F)(F)F [Ex. No. 12] : 3.67

Please look at the following molecule next.
[in] Recorded chromatographic logP for Cc1cc(F)c(N2C(=O)CN(C(=O)NC3CC3)C2=O)cc1SCC(F)(F)F [Ex. No. 1] , please?
[out] 3.07

These data points were gathered from patent US10206398B2.
